# pEC50 listing for each entry below
molecular target: rat mGluR5 (Rattus norvegicus); construct: expressed in transfected cells; host or cells: human embryonic kidney (HEK) cells; assay: potentiation of mGluR5 response to glutamate, Ca2+ fluorescence (FDSS) in HEK cells transfected with rat mGluR5; type: cell-based; conditions: potentiation of glutamate response, HEK cells transfected with rat mGluR5; SAR tables; read-out: EC50
Sequence (P31424 21-1203): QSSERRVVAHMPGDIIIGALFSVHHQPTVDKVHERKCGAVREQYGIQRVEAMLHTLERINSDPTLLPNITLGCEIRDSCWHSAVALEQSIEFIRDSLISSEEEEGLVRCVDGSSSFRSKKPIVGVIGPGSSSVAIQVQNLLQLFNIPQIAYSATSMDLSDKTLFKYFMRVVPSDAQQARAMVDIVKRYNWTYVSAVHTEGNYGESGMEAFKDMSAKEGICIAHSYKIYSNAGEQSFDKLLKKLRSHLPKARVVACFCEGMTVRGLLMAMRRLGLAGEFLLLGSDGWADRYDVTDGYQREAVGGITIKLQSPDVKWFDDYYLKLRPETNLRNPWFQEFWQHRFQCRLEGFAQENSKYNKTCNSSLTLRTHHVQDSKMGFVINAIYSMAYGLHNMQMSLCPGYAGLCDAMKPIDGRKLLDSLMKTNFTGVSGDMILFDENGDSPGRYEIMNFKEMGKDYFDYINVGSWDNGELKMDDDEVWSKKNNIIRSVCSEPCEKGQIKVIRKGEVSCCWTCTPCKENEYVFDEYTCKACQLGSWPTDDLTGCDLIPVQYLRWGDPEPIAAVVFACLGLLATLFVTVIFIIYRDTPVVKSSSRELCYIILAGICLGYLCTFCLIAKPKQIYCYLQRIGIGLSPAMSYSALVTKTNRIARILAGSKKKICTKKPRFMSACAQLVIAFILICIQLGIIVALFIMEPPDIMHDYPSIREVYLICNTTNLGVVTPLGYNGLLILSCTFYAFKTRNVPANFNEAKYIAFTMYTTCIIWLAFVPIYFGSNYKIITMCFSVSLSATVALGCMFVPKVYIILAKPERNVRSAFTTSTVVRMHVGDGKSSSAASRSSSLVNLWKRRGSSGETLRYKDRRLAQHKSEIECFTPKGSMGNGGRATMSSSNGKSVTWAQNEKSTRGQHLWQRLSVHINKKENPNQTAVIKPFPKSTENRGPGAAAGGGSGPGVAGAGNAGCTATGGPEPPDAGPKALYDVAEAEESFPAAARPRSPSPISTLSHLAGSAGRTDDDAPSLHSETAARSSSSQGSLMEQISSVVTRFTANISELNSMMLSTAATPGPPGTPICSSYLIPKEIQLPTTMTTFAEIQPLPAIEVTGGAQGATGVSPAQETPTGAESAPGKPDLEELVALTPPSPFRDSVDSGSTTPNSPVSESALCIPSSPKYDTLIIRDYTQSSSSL
pEC50: −log10 of the molar value.
Observation type: pEC50

{"columns": ["Compound", "Measurement"],
 "data": [
  ["O=C(c1ccc(C#Cc2cccc(F)c2)cc1)N1CCC(O)CC1 [Compound 19b]", 8.49],
  ["O=C(c1ccc(C#Cc2ccccc2)cc1)N1CCC(O)(c2ccc(F)cc2)CC1", 5.92],
  ["O=C(c1ccc(C#Cc2ccc(F)cc2)cc1)N1CCOCC1 [Compound 20k]", 7.63],
  ["O=C(c1ccc(C#Cc2ccc(F)c(F)c2)cc1)N1CC(O)C1 [Compound 20p]", 6.50],
  ["COc1ccc(C2(O)CCN(C(=O)c3ccc(C#Cc4ccccc4)cc3)CC2)cc1", 5.61],
  ["Cc1cc(C#Cc2ccc(C(=O)N3CCC(O)CC3)cc2)ccc1F [Compound 19f]", 6.30],
  ["CCCC1(O)CN(C(=O)c2ccc(C#Cc3ccccc3)cc2)C1", 6.37],
  ["O=C(c1ccc(C#Cc2ccccc2F)cc1)N1CCC(O)CC1 [Compound 19a]", 7.56],
  ["O=C(c1ccc(C#Cc2cccc(F)c2)cc1)N1CC(O)C1 [Compound 20n]", 7.23],
  ["O=C(c1ccc(C#Cc2ccc(F)c(F)c2)cc1)N1CCC(CO)CC1 [Compound 20h]", 7.12],
  ["O=C(c1ccc(C#Cc2ccccc2)cc1)N1CC(O)(c2cccs2)C1", 5.83],
  ["O=C(c1ccc(C#Cc2ccccc2)cc1)N1CC(O)C1", 6.67],
  ["O=C(c1ccc(C#Cc2ccc(F)cc2)cc1)N1CCC(CO)CC1 [Compound 20g]", 7.61],
  ["O=C(c1ccc(C#Cc2cccc(F)c2)cc1)N1CCOCC1 [Compound 20j]", 8.28],
  ["CC1(O)CCN(C(=O)c2ccc(C#Cc3ccc(F)c(F)c3)cc2)CC1 [Compound 20d]", 6.86],
  ["CC1(O)CCN(C(=O)c2ccc(C#Cc3cccc(F)c3)cc2)CC1 [Compound 20b]", 7.71],
  ["O=C(c1ccc(C#Cc2ccc(F)cc2F)cc1)N1CCC(O)CC1 [Compound 19g]", 5.71],
  ["O=C(c1ccc(C#Cc2ccccc2F)cc1)N1CCOCC1 [Compound 20i]", 7.92],
  ["O=C(c1ccc(C#Cc2ccccc2)cc1)N1CCC(O)(c2cccc(F)c2)CC1", 5.80],
  ["CC1(O)CCN(C(=O)c2ccc(C#Cc3ccc(F)cc3)cc2)CC1 [Compound 20c]", 7.40],
  ["CC1(O)CCN(C(=O)c2ccc(C#Cc3ccccc3)cc2)CC1", 8.46]
]}
